Data origin: PubChem BioAssay (NCI)

Reported TGI values for a set of molecules
- System: MOLT-4 leukemia
- test: NCI tumour cell line growth inhibition, 48 h

{"molecule": "Cc1cn2c(/C=C3/C(=O)N(C)c4ccccc43)c(C)nc2s1", "valueQualifier": "=", "TGI, µM": 26.8}
{"molecule": "Cc1ccc(-c2c(C#N)c(-c3ccccc3)n(NS(=O)(=O)c3ccc(C)cc3)c(=O)c2C#N)cc1", "valueQualifier": "=", "TGI, µM": 54.5}
{"molecule": "C=C(C)C1CC=C(C)C(=O)C1 (stereo unspecified)", "valueQualifier": ">", "TGI, µM": 100}
{"molecule": "O=C(CP(=O)(c1ccccc1)c1ccccc1)c1cccc(C(=O)CP(=O)(c2ccccc2)c2ccccc2)c1", "valueQualifier": ">", "TGI, µM": 100}
{"molecule": "CCCCCCCCCCCCCC1CCC(CC)N1 (stereo unspecified)", "valueQualifier": "=", "TGI, µM": 30.6}
{"molecule": "NC(=O)NC1NC(=O)NC1=O (stereo unspecified)", "valueQualifier": ">", "TGI, µM": 100}
{"molecule": "C[C@]12CCC(O)CC1=CC[C@@H]1[C@@H]2CC[C@]2(C)C(O)[C@H](n3ccnc3)C[C@@H]12 (stereo partly specified)", "valueQualifier": "=", "TGI, µM": 80.1}
{"molecule": "COc1ccc2c(c1)C=C([N+](=O)[O-])C(C1OC(C)(C)OC1C1COC(C)(C)O1)O2 (stereo unspecified)", "valueQualifier": "=", "TGI, µM": 6.51}
{"molecule": "C[C@]12CC[C@H]3[C@@H](CCC4=CC(=O)CC[C@@H]43)[C@@H]1CC[C@]2(O)C(N)=O", "valueQualifier": ">", "TGI, µM": 100}
{"molecule": "OC1=C2c3ccccc3NC2Oc2cc(F)ccc21 (stereo unspecified)", "valueQualifier": "=", "TGI, µM": 34.5}
{"molecule": "COc1cc[nH]c1/C=C1\\C(=O)Nc2ccccc21", "valueQualifier": ">", "TGI, µM": 25}
